# assay_summary: E-selectin induction blockers in HUVEC – imaging, immunofluorescence, high content, primary screen (AID 1246);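 note: 0% = TNF-stimulated DMSO wells and 100% = unstimulated control wells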
# condition_context: HUVEC TNFa-induced E-selectin immunofluorescence, at 2 µM, stronger effect = higher value
The whole screen tested about 120,000 compounds, of which about 840 (0.7%) were called active. The full list was thinned out, with actives kept by preference.
assay_readout: inhibition (%)
Just the number in %, nothing appended.

Consider CN1CCN(c2ccc(NC(=O)COc3ccc(Cl)cc3Cl)cc2)CC1 . Its measured inhibition is 3.16

Value of measured inhibition for the entry O=C(NCC1CCCO1)C1CCN(C2CCN(C(=O)C3CCCCC3)CC2)CC1 (stereo unspecified) : 13

Lab note: Cc1ccc(NC(=O)COc2ccc(-n3ccnc3)cc2)cc1Cl gave inhibition of 73

Lookup result for CC(=O)NCCn1c(SCC(=O)Nc2ccc(C)cc2)nc2ccccc2c1=O ; measured inhibition: -10.7

Next:
Value of inhibition reported for the compound O=C(CCC(=O)Nc1ccccc1)N/N=C/c1ccccc1F is -1.59

The compound listed as O=C(COC(=O)c1ccco1)NCc1ccc(Cl)cc1 has a reported inhibition of -1.29

###

# assay_summary: E-selectin induction blockers in HUVEC – imaging, immunofluorescence, high content, primary screen (AID 1246);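 note: 0% = TNF-stimulated DMSO wells and 100% = unstimulated control wells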
# condition_context: HUVEC TNFa-induced E-selectin immunofluorescence, at 2 µM, stronger effect = higher value
The whole screen tested about 120,000 compounds, of which about 840 (0.7%) were called active. The sample holds actives, similar compounds and a random draw of the others, so the mix is not that of the screen.
assay_readout: inhibition

// inhibition lookup, molecule = Cc1ccc(-c2csc3nnc(SCC(=O)NCc4ccco4)n23)cc1 , result: -6.76% (inactive)

Query CCOC(=O)C(C)n1cnc2sc(C)c(C)c2c1=O (stereo unspecified) yields inhibition of 23.1% (inactive)

inhibition in this record for O=C1CCC(=O)N1c1ccc(NCCc2ccccc2F)c([N+](=O)[O-])c1 : -8.93% (inactive)

Value of measured inhibition for the entry CCCNc1ncnc2sc(C)c(C)c12 : 99.7% (active)

inhibition measured on Cc1cnc(C(=O)OCC(=O)NCCCc2ccccc2)cn1 = -18.2% (inactive)

Continuing:
Looking up CCn1c(SCC(=O)NCc2ccco2)nnc1-c1ccc(N)cc1 , I see its inhibition listed as 69.4% (active)

###

# assay_summary: E-selectin induction blockers in HUVEC – imaging, immunofluorescence, high content, primary screen (AID 1246);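 note: 0% = TNF-stimulated DMSO wells and 100% = unstimulated control wells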
# condition_context: HUVEC TNFa-induced E-selectin immunofluorescence, at 2 µM
Screen size: about 120,000 compounds; about 840 (0.7%) were called active.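 Rule for the calls: active = inhibition above the batch mean plus 3 SD, and confirmed as a hit on visual image review (cut at about 43% in these data); inconclusive = passes the inhibition cutoff but fails visual image review; inactive = the rest.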 The sample as a whole holds a higher share of actives than the screen did.
Give your call using only these classes: active, inactive

Would you please look over these solved cases?
[ask] Answer briefly: the call reported for Cc1nc(-c2ccc(Cl)cc2)sc1C(=O)CBr in this assay.
[reply] inactive

[ask] Assay outcome for COc1ccccc1CNC(=O)C1Cc2ccccc2C(=O)O1 (stereo unspecified) : what was it?
[reply] inactive

[ask] Which result was noted for this molecule in the test: CCC(C)(C)NC(=O)CN(C(=O)C(=O)Nc1ccc2c(c1)OCCO2)C(C)(C)CC
[reply] inactive

[ask] Hello, I am checking results. What call was entered for Cc1cccc(C(=O)NNC(=O)c2cccc([N+](=O)[O-])c2)c1 ?
[reply] inactive

[ask] Recorded call for COc1ccc(-c2cc(C(F)(F)F)nc(NCc3cccnc3)n2)cc1 ?
[reply] inactive

[ask] Query: recorded result category for COC(=O)C1=C(C)N(C)C(=O)NC1c1ccc([N+](=O)[O-])o1 (stereo unspecified) in this test
[reply] inactive

Could you now look at the following molecule, please?
[ask] I'd appreciate the recorded outcome for C/C=N/NC(=O)CCCC(=O)N/N=C/C from this test.
[reply] inactive

###

# assay_summary: E-selectin induction blockers in HUVEC – imaging, immunofluorescence, high content, primary screen (AID 1246);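 note: 0% = TNF-stimulated DMSO wells and 100% = unstimulated control wells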
# condition_context: HUVEC TNFa-induced E-selectin immunofluorescence, at 2 µM
About 840 (0.7%) of roughly 120,000 compounds were called active.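 How the source made its calls: active means inhibition above the batch mean plus 3 SD, and confirmed as a hit on visual image review (cut at about 43% in these data); inconclusive means passes the inhibition cutoff but fails visual image review; inactive means the rest.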 The sample as a whole holds a higher share of actives than the screen did.
Answer with one of the outcomes TRUE (active), FALSE (inactive)

Please review the following examples before continuing.
[ask] Test call for this compound, please: Cc1cc(C)c2c(c1)c(C)cc1nnc(SCC(=O)NCc3ccco3)n12
[reply] FALSE

[ask] Hi, do you know how Cc1ccnc(NC(=O)CCCOc2ccccc2)c1 came out in this test?
[reply] FALSE

[ask] Hi, do you know how CCNC(=S)NNC(=O)c1ccc2ncccc2c1 came out in this test?
[reply] FALSE

[ask] Called result for O=C(Oc1cccc(N2C(=O)C3C4c5ccccc5C(c5ccccc54)C3C2=O)c1)c1ccco1 (stereo not drawn)
[reply] FALSE

[ask] Recorded test outcome, item CCCCN(CC(=O)NC(C)(C)C)C(=O)C(=O)Nc1ccc2c(c1)OCCO2
[reply] FALSE

Further cases:
[ask] What classification did CCN(C(=O)CN1CCN(Cc2ccccc2)CC1)c1c(N)n(Cc2ccccc2)c(=O)[nH]c1=O end up with in this test?
[reply] FALSE

[ask] Short answer needed: outcome of this test for O=C(CSc1nnc(-c2ccco2)n1Cc1ccccc1)NC(=O)NCc1ccco1 ?
[reply] FALSE

[ask] For Cc1c(Br)c([N+](=O)[O-])nn1CC(=O)N1CCN(Cc2ccccc2)CC1 , what call appears in the results of this test?
[reply] FALSE

###

inhibition by entry:
# assay_summary: E-selectin induction blockers in HUVEC – imaging, immunofluorescence, high content, primary screen (AID 1246);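 note: 0% = TNF-stimulated DMSO wells and 100% = unstimulated control wells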
# condition_context: HUVEC TNFa-induced E-selectin immunofluorescence, at 2 µM, stronger effect = higher value
Hit rate of the full screen: of about 120,000 compounds, about 840 (0.7%) were called active. The entries come from a sample that favours actives as a whole.

Previously resolved entries follow.
The measured inhibition associated with CCOC(=O)COc1ccc([N+](=O)[O-])cc1 reads 7.8% (inactive)

So for CCOC(=O)c1sc(=NC(=O)/C=C/c2cccs2)n(C)c1C , the logged inhibition turned out to be -26.1% (inactive)

GET /value?item= COC(=O)c1c(C(=O)OC)c(-c2cccc(C)c2)n2c1CS(=O)C2 (stereo unspecified) &field=inhibition returns 58.3% (inactive)

The compound CCN1C(=O)/C(=c2\s/c(=C3\Sc4ccccc4N3C)c(=O)n2C)N(C)C1=S showed inhibition equal to -4.14% (inactive)

inhibition reported for this compound O=C(Nn1cnc2ccccc2c1=O)c1ccc([N+](=O)[O-])cc1Cl : -17% (inactive)

Next:
Data point: O=C(CN(CC1CCCO1)C(=O)CNS(=O)(=O)c1ccc(F)cc1)NCc1ccco1 (stereo unspecified) ; inhibition = -15.3% (inactive)

response.value for N/C(Cc1ccc([N+](=O)[O-])cc1)=N\OC(=O)COc1ccc2ccccc2c1 (field: inhibition) = 62.5% (active)

Recorded inhibition (compound CCC(C)CN1CCC(CO)(Cc2ccccc2Cl)CC1 (stereo unspecified) ): -16.5% (inactive)

Summary for this compound, CN(C)CC(C)(C)CNC(=O)c1cc(Br)cc(Br)c1O : inhibition is 0.11% (inactive)

Sample COc1ccccc1CNC(=O)c1cc(=O)c2ccccc2o1 ; inhibition observed: 6.95% (inactive)

Field inhibition (entry COCCN(C(=O)CCC(=O)Nc1nccs1)C(C(=O)NC(C)(C)C)c1ccc(Cl)cc1 (stereo unspecified) ) reads 19.2% (inactive)

###

# assay_summary: E-selectin induction blockers in HUVEC – imaging, immunofluorescence, high content, primary screen (AID 1246);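 note: 0% = TNF-stimulated DMSO wells and 100% = unstimulated control wells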
# condition_context: HUVEC TNFa-induced E-selectin immunofluorescence, at 2 µM, stronger effect = higher value
Hit rate of the full screen: of about 120,000 compounds, about 840 (0.7%) were called active. The entries come from a sample that favours actives as a whole.
assay_readout: inhibition (%)
Form entry: value (%) — number only.

CC1CCCC(C)N1/N=C/c1ccccc1OC(F)F (configuration not stated) yielded inhibition of 0.15

The molecule identified as O=C(CSc1nc2ccccc2c(=O)n1CCCO)N1CCc2ccccc21 registered its inhibition at -7.95

The molecule listed as Cc1ccc(OCC(=O)Nc2ccc(S(=O)(=O)Nc3ccccn3)cc2)cc1 has a reported inhibition of -18.7

Continuing:
inhibition reading for COc1ccc(C2N=C(N)N=C(N)N2c2ccccc2)cc1OC (configuration not stated) : 62.9

CC(=O)Nc1ccc(C(=O)OCC(=O)Nc2ccc([N+](=O)[O-])cc2C(F)(F)F)cc1 yielded inhibition of -7.06

Form: molecule = Cn1c(=O)cc(OCCCC(=O)N2CCN(c3ccccn3)CC2)c2ccccc21 ; inhibition = -12.9

Reported inhibition for COc1ccc(C2/C(=C(/O)c3ccccc3)C(=O)C(=O)N2c2ncccn2)cc1OC (configuration not stated) was -2.78

Noted for COc1ccc(-n2nnnc2SCC(=O)NCc2cccs2)cc1 : its inhibition reads 12.9

GET /value?item= O=C(Nc1ccnc(-c2ccncc2)n1)c1cccs1 &field=inhibition returns -27.2

Reported inhibition ( O=c1[nH]c2cccnc2n(CCNc2ncc(C(F)(F)F)cc2Cl)c1=O ) = -0.32

Consider CN(C)S(=O)(=O)c1cc(NC(=O)CN2C(=O)NC3(CCCc4ccccc43)C2=O)ccc1Cl (configuration not stated) . Its measured inhibition is 67.1

Noted for CC1CCC2(CC1)NC(=O)N(Cc1nnc(-c3cccs3)o1)C2=O (configuration not stated) : its inhibition reads -9.64

Looking up C=CCn1c(=O)c2ccccc2n2c(SCC(=O)N3CCCc4ccccc43)nnc12 , I see its inhibition listed as 80.1

// recorded inhibition for CC(CC(=O)C1C(C)C=CCC1(C)C)NNC(N)=O (configuration not stated) : 13.4

inhibition for CSc1nc2nc(-c3cccc(C(F)(F)F)c3)ccn2n1 is -26.4

get_value(item= Cc1cccc(NC(=O)CN2C(=O)CNC2=O)c1 , readout=inhibition) returns -1.87

Lab note: measured inhibition of Cn1c(SCC(=O)Nc2cccc(NC(=O)c3cccs3)c2)nnc1-c1ccncc1 was 26.7

Summary for this molecule, Cc1cc(C)c(C#N)c(SCC(=O)Nc2ccccc2)n1 : inhibition is -29.3
